System: LoVo
Test: Cytotoxicity against human LoVo cells by MTT assay
Format: functional
RECORDED ENDPOINT: GI50 (mg/L)

{"COMPOUND": "CC(C)CC1OC1[C@@H](C)[C@@]1(O)CC[C@H]2[C@@H]3CC=C4C[C@@H](O)CC[C@]4(C)[C@H]3CC[C@@]21C (some centres undefined)", "ASSAY SYSTEM": "LoVo", "UNIT TEXT": "mg/L", "ENDPOINT RESULT": 6.23}
{"COMPOUND": "CC(C)C(C)C1OC1[C@@H](C)[C@@]1(O)CC[C@H]2[C@@H]3CC=C4C[C@@H](O)CC[C@]4(C)[C@H]3CC[C@@]21C (some centres undefined)", "ASSAY SYSTEM": "LoVo", "UNIT TEXT": "mg/L", "ENDPOINT RESULT": 4.02}
{"COMPOUND": "CC1=C(CCC(C)C)OC[C@]23CC[C@H]4[C@@H](CC=C5C[C@@H](O)CC[C@@]54C)[C@@H]2CC[C@H]13", "ASSAY SYSTEM": "LoVo", "UNIT TEXT": "mg/L", "ENDPOINT RESULT": 6.91}
{"COMPOUND": "CC1=C(CCC(C)C)OC[C@]23CC[C@H]4[C@@H](CC[C@H]5C[C@@H](O)CC[C@@]54C)[C@@H]2CC[C@H]13", "ASSAY SYSTEM": "LoVo", "UNIT TEXT": "mg/L", "ENDPOINT RESULT": 8.29}
